Tested on: CCRF-CEM
Assay: NCI DTP cell line screen (SRB), Leukemia
Type: cell-based
Conditions: read-out: LC50 (the source's name)
measured_metric: CC50 (µM)
Could you give me the number in µM? Just the number is fine.

[Q] I would be grateful if you could share the reported CC50 for `N=C(N)Nc1ccc(-n2nc(C(F)(F)F)cc2-c2ccc3c(ccc4ccccc43)c2)cc1` .
[A] 5

###

System: OVCAR-4
Assay: NCI DTP cell line screen (SRB), Ovarian Cancer
Format: cell-based
Conditions: read-out: LC50 (the source's name)
Protocol: Screening of compounds 70 and 71 against several cancer cell lines The human tumor cell lines of the cancer screening panel are grown in RPMI 1640 medium containing 5% fetal bovine serum and 2 mM L-glutamine. […] Following drug addition, the plates are incubated for an additional 48 h at 37° C., 5% CO2, 95% air, and 100% relative humidity. […] Bound stain is subsequently solubilized with 10 mM trizma base, and the absorbance is read on an automated plate reader at a wavelength of 515 nm. […]
measured_metric: CC50 (µM)
Could you give me the number in µM? Just the number is fine.

[Q] Item: `N=C(N)Nc1ccc(-n2nc(C(F)(F)F)cc2-c2ccc3c(ccc4ccccc43)c2)cc1` Test system: OVCAR-4 Read-out: CC50 Value: ?
[A] 5.08

###

Tested on: IGROV1
Assay: NCI DTP cell line screen (SRB), Ovarian Cancer
Format: cell-based
Conditions: read-out: LC50 (the source's name)
measured_metric: CC50 (µM)
Could you give me the number in µM? Just the number is fine.

[Q] I would be grateful if you could share the reported CC50 for `N=C(N)Nc1ccc(-n2nc(C(F)(F)F)cc2-c2ccc3c(ccc4ccccc43)c2)cc1` .
[A] 4.75

###

System: NCI-H322M
Assay: NCI DTP cell line screen (SRB), Non-Small Cell Lung Cancer
Type: cell-based
Settings: read-out: LC50 (the source's name)
measured_metric: CC50 (µM)
Could you give me the number in µM? Just the number is fine.

[Q] Item: `N=C(N)Nc1ccc(-n2nc(C(F)(F)F)cc2-c2ccc3c(ccc4ccccc43)c2)cc1` Test system: NCI-H322M Read-out: CC50 Value: ?
[A] 5.14

###

System: A498
Assay: NCI DTP cell line screen (SRB), Renal Cancer
Type: cell-based
Details: read-out: LC50 (the source's name)
measured_metric: CC50

[Q] I would be grateful if you could share the reported CC50 for `N=C(N)Nc1ccc(-n2nc(C(F)(F)F)cc2-c2ccc3c(ccc4ccccc43)c2)cc1` .
[A] > 100 µM

###

Test system: HT29
Assay: NCI DTP cell line screen (SRB), Colon Cancer
Format: cell-based
Conditions: read-out: LC50 (the source's name)
measured_metric: CC50 (µM)
Could you give me the number in µM? Just the number is fine.

[Q] I would be grateful if you could share the reported CC50 for `N=C(N)Nc1ccc(-n2nc(C(F)(F)F)cc2-c2ccc3c(ccc4ccccc43)c2)cc1` .
[A] 5.32

###

Test system: TK-10
Test: NCI DTP cell line screen (SRB), Renal Cancer
Format: cell-based
Settings: read-out: LC50 (the source's name)
measured_metric: CC50 (µM)
Could you give me the number in µM? Just the number is fine.

[Q] I would be grateful if you could share the reported CC50 for N=C(N)Nc1ccc(-n2nc(C(F)(F)F)cc2-c2ccc3c(ccc4ccccc43)c2)cc1 [Compound 71] .
[A] 5.09

###

Test system: MOLT-4
Experiment: NCI DTP cell line screen (SRB), Leukemia
Format: cell-based
Settings: read-out: LC50 (the source's name)
measured_metric: CC50 (µM)
Could you give me the number in µM? Just the number is fine.

[Q] Item: `N=C(N)Nc1ccc(-n2nc(C(F)(F)F)cc2-c2ccc3c(ccc4ccccc43)c2)cc1` Test system: MOLT-4 Read-out: CC50 Value: ?
[A] 8.75

###

System: OVCAR-8
Test: NCI DTP cell line screen (SRB), Ovarian Cancer
Format: cell-based
Details: OVCAR 8; read-out: LC50 (the source's name)
Procedure: Screening of compounds 70 and 71 against several cancer cell lines The human tumor cell lines of the cancer screening panel are grown in RPMI 1640 medium containing 5% fetal bovine serum and 2 mM L-glutamine. […] Following drug addition, the plates are incubated for an additional 48 h at 37° C., 5% CO2, 95% air, and 100% relative humidity. […] Bound stain is subsequently solubilized with 10 mM trizma base, and the absorbance is read on an automated plate reader at a wavelength of 515 nm. […]
measured_metric: CC50 (µM)
Could you give me the number in µM? Just the number is fine.

[Q] I would be grateful if you could share the reported CC50 for N=C(N)Nc1ccc(-n2nc(C(F)(F)F)cc2-c2ccc3c(ccc4ccccc43)c2)cc1 [Compound 71] .
[A] 5.52

Ref: patent US8541460B2
